Compiled literature IC50, tested on UniProtKB Q9NWZ3.
# note: exactly 3 nM is not below, so it is not met; use met for IC50 strictly under it

Query: Record CC(C)Nc1c(C(=O)NC[C@@H](F)C(C)(C)O)cnc2ccc(-c3cn[nH]c3)nc12 : is its IC50 strictly below 3 nM?
Result: met

Query: Record CC(C)(O)[C@H](F)CNC(=O)c1cnc(-c2cnc3cc(C#N)cnn23)cc1NC1CCC(F)C1 (stereo partly drawn) : is its IC50 strictly below 3 nM?
Result: not met

Query: Record COCCOCCOc1cc2ncn(-c3ccc(C#N)cn3)c2nc1N[C@H]1CC[C@@](C)(O)CC1 : is its IC50 strictly below 3 nM?
Result: not met

Query: Record CC(C)(O)[C@H](F)CNC(=O)c1cnc(-c2ccc3cc(C#N)cnn23)cc1N[C@@H]1CC[C@@H](c2nnc(C(F)F)o2)OC1 : is its IC50 strictly below 3 nM?
Result: met

Query: Record N#Cc1cncc(-c2ccc3ncnc(N[C@H]4CC[C@H](N5CCOCC5)CC4)c3c2)c1 : is its IC50 strictly below 3 nM?
Result: not met

Query: Record COCCCNc1ncc(-c2nc3ccccc3s2)c(N[C@@H]2C[C@H](CO)[C@@H](O)[C@H]2O)n1 : is its IC50 strictly below 3 nM?
Result: not met

Query: Record CC(C)(O)[C@H](F)CNC(=O)c1cnc(-c2ccc3cc(C#N)cnn23)cc1N[C@H]1CC[C@H](n2ccnn2)CC1 : is its IC50 strictly below 3 nM?
Result: met

Query: Record CC(C)(F)CNc1cc(Nc2ccn3ncc(F)c3c2)ncc1C(=O)NC[C@@H](F)C(C)(C)O : is its IC50 strictly below 3 nM?
Result: not met

Query: Record CC(C)Nc1cc(-n2ncc3cc(C#N)cnc32)ncc1-c1cn(C2CCN(S(C)(=O)=O)CC2)nn1 : is its IC50 strictly below 3 nM?
Result: not met

----------
Compiled literature IC50, tested on IRAK4 (Homo sapiens (Human)).
# note: exactly 2 nM is not below, so it is FALSE; use TRUE for IC50 strictly under it

Query: Record Cc1cc(-c2nc(C(=O)Nc3cn4cc(C(C)(C)O)nc4cc3-c3ccccc3)co2)ccn1 : is its IC50 strictly below 2 nM?
Result: TRUE

Query: Record CC(C)(O)[C@H](F)CNC(=O)c1cnc(Nc2ccn3nccc3n2)cc1NC12CCC(O)(CC1)C2 : is its IC50 strictly below 2 nM?
Result: FALSE

Query: Record CC(C)(O)CCc1cn(-c2cnc(-n3ncc4cc(C#N)cnc43)cc2N[C@H]2CC[C@H](O)CC2)nn1 : is its IC50 strictly below 2 nM?
Result: FALSE

Query: Record CC1(O)CCC(NC(=O)c2cnc(Nc3ccc4ncsc4c3)cc2NC2CC2)CC1 (stereo not shown) : is its IC50 strictly below 2 nM?
Result: FALSE

Query: Record CC(C)(O)[C@H](F)CNC(=O)c1cnc(Nc2ccc3ncsc3c2)cc1NCC(F)(F)C(C)(C)O : is its IC50 strictly below 2 nM?
Result: FALSE

Query: Record CC(=O)N1CCC(n2cc(-c3cnc(-c4ccc5cc(C#N)cnn45)cc3NC(C)C)nn2)CC1 : is its IC50 strictly below 2 nM?
Result: TRUE

Query: Record Cn1cc(-c2cccc(-c3ncc(-c4ccn(C)n4)c(NCC4(C)CCC4)n3)c2)cn1 : is its IC50 strictly below 2 nM?
Result: FALSE

Query: Record CC(C)(O)CCc1cn(-c2cnc(-n3ncc4cc(C#N)cnc43)cc2NCCCF)nn1 : is its IC50 strictly below 2 nM?
Result: FALSE

Query: Record CC(C)(C)CCNC(=O)c1cnc(-c2cnc3cc(Cl)cnn23)cc1NC1COC1 : is its IC50 strictly below 2 nM?
Result: FALSE

Query: Record CCCc1cn(-c2cnc(-n3ncc4cc(C#N)cnc43)cc2N[C@H](C)CO)nn1 : is its IC50 strictly below 2 nM?
Result: FALSE

----------
Compiled literature IC50, tested on UniProt Q9NWZ3.

Query: Send back UniProt Q9NWZ3 IC50 of Nc1cccc(-c2c[nH]c3ncccc23)c1 only.
Result: ≤ 10000 nM

Query: Send back UniProt Q9NWZ3 IC50 of CCC[C@H](N)c1ccnc(-c2cc(OCC)c3cnn(-c4cccc(CO)n4)c3c2)n1 only.
Result: < 100 nM

Query: Send back UniProt Q9NWZ3 IC50 of CC(C)Nc1cc(Nc2ccc3ncsc3c2)ncc1-c1nnc(C(=O)N2CCC(O)C2)s1 (single isomer, unassigned) only.
Result: 2.8 nM

Query: Send back UniProt Q9NWZ3 IC50 of CC[C@H](N)c1cccc(-c2cc(OC)c3cnn(-c4cncc(CO)n4)c3c2)n1 only.
Result: < 100 nM

Query: Send back UniProt Q9NWZ3 IC50 of CC(C)Nc1cc(Nc2ccc(C#N)cc2)ncc1-c1nnc(NC[C@@H](F)CO)o1 only.
Result: 22.9 nM

Query: Send back UniProt Q9NWZ3 IC50 of CCC[C@H](N)c1nccc(-c2ccc3cnn(-c4cccc(CO)n4)c3c2)n1 only.
Result: < 100 nM

Query: Send back UniProt Q9NWZ3 IC50 of CNC1CCC(Oc2ncnc3sc4c(c23)[C@@H](C[C@H](N)C(N)=O)CC4)CC1 (stereo partly shown) only.
Result: < 5000 nM

Query: Send back UniProt Q9NWZ3 IC50 of CN1CCOC(CNc2nc(-c3cccc(-c4cnn(C)c4)c3)ncc2-c2cnn(C)c2)C1 (stereo not shown) only.
Result: 100 to 1000 nM

Query: Send back UniProt Q9NWZ3 IC50 of C=CC(=O)N1CCC[C@H](c2nc(-c3ccc(NC(=O)c4cccc(-c5[nH]ncc5Cl)n4)c(F)c3)no2)C1 only.
Result: > 10000 nM

Query: Send back UniProt Q9NWZ3 IC50 of CC(C)Nc1cc(-n2ncc3cc(C#N)cnc32)ncc1-n1cc(CCCN)cn1 only.
Result: 39 nM

Query: Send back UniProt Q9NWZ3 IC50 of NC(=O)CCc1ccc2ncnc(N[C@H]3CC[C@H](N4CCOCC4)CC3)c2c1 only.
Result: ≤ 5000 nM

Query: Send back UniProt Q9NWZ3 IC50 of COc1cc(Nc2ncc(-c3nc4ccncc4s3)c(N[C@@H]3C[C@H](CO)[C@@H](O)[C@H]3O)n2)ccn1 only.
Result: 2 nM

Query: Send back UniProt Q9NWZ3 IC50 of CC(O)c1c[nH]c(=O)c2cc3ccnc(OC[C@@H]4CCC(=O)N4)c3cc12 (stereo partly shown) only.
Result: 62.7 nM

Query: Send back UniProt Q9NWZ3 IC50 of CCC[C@H](N)c1cccc(-c2cc(-c3ncccn3)c3cnn(-c4cccc(CO)n4)c3c2)n1 only.
Result: < 100 nM

Query: Send back UniProt Q9NWZ3 IC50 of Cn1cc(-c2cccc(C(=O)Nc3nc(CCCC(=O)NCCN4CCOCC4)cn3-c3ccccc3)c2)cn1 only.
Result: > 100 nM

Query: Send back UniProt Q9NWZ3 IC50 of CC(C)(O)[C@H](F)CNC(=O)c1cnc(Nc2ncc3ncccc3n2)cc1NC1CCC(F)C1 (stereo partly shown) only.
Result: 2 nM

----------
Compiled literature IC50, tested on IRAK4 (Homo sapiens (Human), UniProt Q9NWZ3).

Query: Send back IRAK4 (Homo sapiens (Human), UniProt Q9NWZ3) IC50 of Cc1ccc(-n2nc(N3CCN(CC(N)=O)CC3)cc2NC(=O)c2cnn3cccnc23)nc1 only.
Result: 4 nM

Query: Send back IRAK4 (Homo sapiens (Human), UniProt Q9NWZ3) IC50 of CC(C)Nc1cc(-n2ncc3cc(C#N)cnc32)ncc1-c1cn(C(C)C)cn1 only.
Result: 17 nM

Query: Send back IRAK4 (Homo sapiens (Human), UniProt Q9NWZ3) IC50 of CCc1nc2c(N[C@H]3CC[C@H](N4CCOCC4)CC3)nc(Nc3cnn(C4CCS(=O)(=O)CC4)c3)nc2s1 only.
Result: ≤ 1000 nM

Query: Send back IRAK4 (Homo sapiens (Human), UniProt Q9NWZ3) IC50 of CN(C)CCCNC(=O)CCCc1cn(-c2ccccc2)c(NC(=O)c2cccc(-c3cnn(C)c3)c2)n1 only.
Result: 50 to 100 nM

Query: Send back IRAK4 (Homo sapiens (Human), UniProt Q9NWZ3) IC50 of CC(N)c1cccc(-c2ccc3cnn(-c4cccc(C(C)(C)O)n4)c3c2)n1 (stereo not shown) only.
Result: < 100 nM

Query: Send back IRAK4 (Homo sapiens (Human), UniProt Q9NWZ3) IC50 of Nc1ccc(-c2cccc(C(=O)Nc3nc(CCCCCCN4CCCCC4)cn3-c3ccccc3)c2)cn1 only.
Result: < 50 nM

Query: Send back IRAK4 (Homo sapiens (Human), UniProt Q9NWZ3) IC50 of C=Cc1ccc2ncnc(N[C@H]3CC[C@H](N4CCOCC4)CC3)c2c1 only.
Result: ≤ 5000 nM

Query: Send back IRAK4 (Homo sapiens (Human), UniProt Q9NWZ3) IC50 of Cn1cc(-c2cccc(-c3ncc(-c4cnn(C)c4)c(NC4CCC4)n3)c2)cn1 only.
Result: 100 to 1000 nM

Query: Send back IRAK4 (Homo sapiens (Human), UniProt Q9NWZ3) IC50 of O=C(Nc1nc(CCCCN2CCCCC2)cn1-c1ccccc1)c1cccc(-c2cccc3[nH]ncc23)c1 only.
Result: < 50 nM

Query: Send back IRAK4 (Homo sapiens (Human), UniProt Q9NWZ3) IC50 of CCN1CCC(c2cn3c(cnc4[nH]cc(C5CCOCC5)c43)n2)CC1 only.
Result: 100 to 1000 nM

Query: Send back IRAK4 (Homo sapiens (Human), UniProt Q9NWZ3) IC50 of CC(C)Nc1cc(-n2ncc3cc(C#N)cnc32)ncc1-c1cn([C@@H]2CCC[C@H]2O)nn1 (single isomer, unassigned) only.
Result: 3 nM

Query: Send back IRAK4 (Homo sapiens (Human), UniProt Q9NWZ3) IC50 of CC(=O)N[C@H]1CC[C@H](NC(=O)c2cnc(-c3cnc4cc(Cl)cnn34)cc2NC(C)C)CC1 only.
Result: 18 nM

Query: Send back IRAK4 (Homo sapiens (Human), UniProt Q9NWZ3) IC50 of c1nc2c(N[C@H]3CC[C@H](N4CCOCC4)CC3)nc(Nc3cnn(C4CCOCC4)c3)nc2s1 only.
Result: ≤ 1000 nM

Query: Send back IRAK4 (Homo sapiens (Human), UniProt Q9NWZ3) IC50 of Cn1nnc([C@H]2CC[C@H](Nc3cc(-c4ccc5cc(C#N)cnn45)ncc3C(=O)NC[C@@H](F)C(C)(C)O)CC2)n1 only.
Result: < 1 nM

Query: Send back IRAK4 (Homo sapiens (Human), UniProt Q9NWZ3) IC50 of CN(C)[C@H]1CC[C@H](Nc2ncnc3ccc(-c4cnc(N)nc4)cc23)CC1 only.
Result: 19 nM

Query: Send back IRAK4 (Homo sapiens (Human), UniProt Q9NWZ3) IC50 of NC(=O)C[C@H]1CCc2sc3ncnc(O[C@H]4CC[C@H](N5CCOCC5)CC4)c3c21 only.
Result: < 5000 nM

Query: Send back IRAK4 (Homo sapiens (Human), UniProt Q9NWZ3) IC50 of Cc1cc(Nc2nc(N[C@H]3CC[C@H](N4CCCC4)CC3)c3sccc3n2)sn1 only.
Result: ≤ 100 nM

Query: Send back IRAK4 (Homo sapiens (Human), UniProt Q9NWZ3) IC50 of CC(N)c1ccc(F)c(-c2ccc3cnn(-c4cccc(CO)n4)c3c2)n1 (stereo not shown) only.
Result: 100 to 1000 nM

Query: Send back IRAK4 (Homo sapiens (Human), UniProt Q9NWZ3) IC50 of CN(C)C(=O)c1cccc(-c2ccc3ncnc(N[C@H]4CC[C@H](N5CCOCC5)CC4)c3c2)n1 only.
Result: 32 nM

Query: Send back IRAK4 (Homo sapiens (Human), UniProt Q9NWZ3) IC50 of COc1ccc2c(c1)/C(=C/c1cnc(C3CCOCC3)[nH]1)C(=O)N2 only.
Result: > 10000 nM

Query: Send back IRAK4 (Homo sapiens (Human), UniProt Q9NWZ3) IC50 of CC(C)Nc1cc(Nc2ccc3ncncc3c2)ncc1C(=O)NC[C@@H](F)C(C)(C)O only.
Result: 3.1 nM

Query: Send back IRAK4 (Homo sapiens (Human), UniProt Q9NWZ3) IC50 of O=C(Nc1nc(CCC(=O)N2CCCC(C(=O)O)C2)cn1-c1ccccc1)c1cccc(-c2cn[nH]c2)c1 (stereo not shown) only.
Result: < 50 nM

Query: Send back IRAK4 (Homo sapiens (Human), UniProt Q9NWZ3) IC50 of C[C@@H]1CCCCN1C(=O)CCCc1cn(-c2ccccc2)c(NC(=O)c2cccc(-c3cn[nH]c3)c2)n1 only.
Result: < 50 nM

Query: Send back IRAK4 (Homo sapiens (Human), UniProt Q9NWZ3) IC50 of CC(C)(O)[C@H](F)CNC(=O)c1cnc(-c2ccc3cc(C#N)cnn23)cc1NC1(C#N)CC1 only.
Result: < 1 nM

Query: Send back IRAK4 (Homo sapiens (Human), UniProt Q9NWZ3) IC50 of CC(C)CCn1cc(-c2cnc(-n3ncc4cc(Cl)cnc43)cc2NC(C)C)nn1 only.
Result: 6 nM

Query: Send back IRAK4 (Homo sapiens (Human), UniProt Q9NWZ3) IC50 of O=C(Nc1cccn(C2CC2)c1=O)c1cn2cc(C34COC(C3)C4)nc2cc1OC1CCC1 only.
Result: 3.1 nM

Query: Send back IRAK4 (Homo sapiens (Human), UniProt Q9NWZ3) IC50 of CCCc1cccc(-n2ncc3ccc(-c4cccc(C(C)N)n4)cc32)n1 (stereo not shown) only.
Result: < 100 nM

Query: Send back IRAK4 (Homo sapiens (Human), UniProt Q9NWZ3) IC50 of Cc1nsc2nc(Nc3cnn(C4CCOCC4)c3)nc(N[C@H]3CC[C@H](N4CCNC5(CC5)C4)CC3)c12 only.
Result: 13.4 nM

Query: Send back IRAK4 (Homo sapiens (Human), UniProt Q9NWZ3) IC50 of CC(C)CCn1cc(-c2cnc3c([nH]c4cc(C#N)ccc43)c2NC(C)C)nn1 only.
Result: 1.5 nM

Query: Send back IRAK4 (Homo sapiens (Human), UniProt Q9NWZ3) IC50 of CCC[C@H](N)c1cccc(-c2cc(OCC(F)(F)F)c3cnn(-c4cccc(CO)n4)c3c2)n1 only.
Result: < 100 nM

Query: Send back IRAK4 (Homo sapiens (Human), UniProt Q9NWZ3) IC50 of CC[C@H](N)c1cccc(-c2cc(C#N)c3cnn(-c4cccc(CO)n4)c3c2)n1 only.
Result: < 100 nM
